Overview of reported AC50 across a group of compounds:
# system: PKR K410E (Homo sapiens, UniProt P30613, K410E)
# Sequence (P30613 whole entry K410E): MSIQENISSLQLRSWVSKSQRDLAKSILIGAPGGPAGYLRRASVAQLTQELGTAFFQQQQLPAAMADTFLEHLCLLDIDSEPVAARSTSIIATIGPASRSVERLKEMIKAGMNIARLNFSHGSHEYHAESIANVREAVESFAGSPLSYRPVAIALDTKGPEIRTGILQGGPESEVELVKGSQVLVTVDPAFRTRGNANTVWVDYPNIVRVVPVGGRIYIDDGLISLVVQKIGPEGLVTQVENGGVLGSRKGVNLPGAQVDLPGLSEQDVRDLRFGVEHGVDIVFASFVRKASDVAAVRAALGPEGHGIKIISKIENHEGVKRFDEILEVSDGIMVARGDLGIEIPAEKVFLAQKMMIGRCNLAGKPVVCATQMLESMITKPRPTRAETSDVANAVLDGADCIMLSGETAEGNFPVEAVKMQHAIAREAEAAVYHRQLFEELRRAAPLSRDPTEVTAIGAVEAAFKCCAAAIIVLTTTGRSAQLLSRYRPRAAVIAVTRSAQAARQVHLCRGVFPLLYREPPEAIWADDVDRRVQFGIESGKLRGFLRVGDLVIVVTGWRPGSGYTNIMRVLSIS
# experiment: PKR mutant assay (AC50), PKR K410E
# Format: biochemical
# assay-setup: PKR K410E mutant enzyme
# Procedure: Example 11. PKR Mutant Assay PKR or PKR mutant enzyme solution was diluted into a reaction mix, which contains 1× buffer (100 mM KCl, 50 mM Tris pH 7.5, 5 mM MgCl2) as well as PEP (cont depends on enzyme), 180 μM NADH, 0.5 units LDH, 1 mM DTT, 0.03% BSA; final assay concentrations after 1.11 fold dilution are indicated. […] 20 uL ADP was added to start reaction at room temperature and reaction progress was measured as changes in absorbance at 340 nm wavelength at room temperature. […]

**Q:** # query: AC50 of entry CNc1ccc(F)c(Cn2ncc3c4sc(Cc5cc[nH]n5)nc4n(C)c3c2=O)n1
**A:** < 0.3 µM

* * *

# system: wild type PKR (Homo sapiens, UniProt P30613)
# Sequence (P30613 whole entry): as the sequence (P30613 whole entry K410E) above, with E410K counted along it
# experiment: PKR mutant assay (AC50), wild type PKR
# Assay type: biochemical
# assay-setup: wild type PKR enzyme; read-out: PKR WT AC50
property: AC50

Consider the following illustrative entries.
[
  {
    "chem-smiles": "Cn1c2nc(Cc3cc[nH]n3)sc2c2cnn(Cc3nc[nH]c3C(N)=O)c(=O)c21",
    "AC50": "301 to 800 nM"
  },
  {
    "chem-smiles": "Cn1cc(Cn2ncc3c4sc(Cc5cc[nH]n5)nc4n(C)c3c2=O)nn1",
    "AC50": "< 300 nM"
  },
  {
    "chem-smiles": "Cc1ccc(Cn2ncc3c4sc(Cc5cc[nH]n5)nc4n(C)c3c2=O)nc1N",
    "AC50": "< 300 nM"
  },
  {
    "chem-smiles": "CC(=O)Nc1ccc(F)c(Cn2ncc3c4sc(Cn5ccnc5)nc4n(C)c3c2=O)c1",
    "AC50": "> 800 nM"
  }
]

**Q:** # query: AC50 of entry Cn1c2nc(Cc3cc[nH]n3)sc2c2cnn(Cc3coc(N)n3)c(=O)c21
**A:** < 300 nM

* * *

# system: wild type PKR (Homo sapiens)
# experiment: Cell based ATP assay in purified red blood cells
# Design: endogenous in cells; host or cells: purified red blood cells from blood of healthy volunteers
# assay-setup: RBCs, overnight at 37° C., ATP levels by Cell-Titer-Glo
Overview of reported AC50 across a group of compounds:

Consider the following illustrative entries.
[
  {
    "compound": "CN(C)c1cccc(Cn2ncc3c4sc(Cc5cc[nH]n5)nc4n(C)c3c2=O)n1",
    "AC50": "≤ 1000 nM"
  },
  {
    "compound": "Cn1c2nc(Cn3ccc([N+](=O)[O-])n3)sc2c2cnn(Cc3cc[nH]n3)c(=O)c21",
    "AC50": "≤ 1000 nM"
  },
  {
    "compound": "CNc1ccc(F)c(Cc2nc3c(s2)c2cnn(Cc4c[nH]nn4)c(=O)c2n3C)n1",
    "AC50": "≤ 1000 nM"
  },
  {
    "compound": "Cn1c2nc(Cc3cc[nH]n3)sc2c2cnn(Cc3c[nH]c(C(N)=O)n3)c(=O)c21",
    "AC50": "≤ 1000 nM"
  },
  {
    "compound": "Cc1scnc1Cc1nc2c(s1)c1cnn(Cc3c[nH]nn3)c(=O)c1n2C",
    "AC50": "≤ 1000 nM"
  }
]

**Q:** # get_value(readout= AC50, system= wild type PKR (Homo sapiens)) for CC(c1cc[nH]n1)c1nc2c(s1)c1cnn(Cc3cc[nH]n3)c(=O)c1n2C (centres unmarked)
**A:** ≤ 1000 nM

**Q:** # get_value(readout= AC50, system= wild type PKR (Homo sapiens)) for Cn1c2nc(Cc3cc[nH]n3)sc2c2cnn(Cc3nc[nH]c3C(N)=O)c(=O)c21
**A:** > 1000 nM

* * *

# system: PKR K410E (Homo sapiens, UniProt P30613, K410E)
# experiment: PKR mutant assay (AC50), PKR K410E
# Assay type: biochemical
# assay-setup: PKR K410E mutant enzyme
property: AC50

Consider the following illustrative entries.
[
  {
    "chem-smiles": "Cn1c2nc(Cc3cc[nH]n3)sc2c2cnn(Cc3ncsc3C(N)=O)c(=O)c21",
    "system": "PKR K410E (Homo sapiens, UniProt P30613, K410E)",
    "property": "AC50",
    "test-result": "< 300 nM"
  },
  {
    "chem-smiles": "Cn1c2nc(Cc3nc(N)ccc3F)sc2c2cnn(Cc3cc[nH]n3)c(=O)c21",
    "system": "PKR K410E (Homo sapiens, UniProt P30613, K410E)",
    "property": "AC50",
    "test-result": "< 300 nM"
  },
  {
    "chem-smiles": "Cn1c2nc(Cc3cc[nH]n3)sc2c2cnn(Cc3c[nH]nn3)c(=O)c21",
    "system": "PKR K410E (Homo sapiens, UniProt P30613, K410E)",
    "property": "AC50",
    "test-result": "< 300 nM"
  }
]

**Q:** # query: AC50 of entry Cn1cc(CC(N)=O)c(Cn2ncc3c4sc(Cc5cc[nH]n5)nc4n(C)c3c2=O)n1
**A:** > 800 nM

**Q:** # query: AC50 of entry Cn1c2nc(Cc3ncsc3Br)sc2c2cnn(Cc3cc[nH]n3)c(=O)c21
**A:** < 300 nM

**Q:** # query: AC50 of entry Cn1c2nc(Cn3cccn3)sc2c2cnn(Cc3cc[nH]n3)c(=O)c21
**A:** < 300 nM

**Q:** # query: AC50 of entry Cn1c2nc(Cc3cc[nH]n3)sc2c2cnn(Cc3ccsn3)c(=O)c21
**A:** < 300 nM

**Q:** # query: AC50 of entry Cn1c2nc(Cc3ccccn3)sc2c2cnn(Cc3cc[nH]n3)c(=O)c21
**A:** < 300 nM

**Q:** # query: AC50 of entry Cn1c2nc(Cn3cncn3)sc2c2cnn(Cc3ccnc(N)n3)c(=O)c21
**A:** > 800 nM

**Q:** # query: AC50 of entry Cn1c2nc(Cc3cc[nH]n3)sc2c2cnn(Cc3cccnc3)c(=O)c21
**A:** < 300 nM

* * *

# system: wild type PKR (Homo sapiens, UniProt P30613)
# experiment: PKR mutant assay (AC50), wild type PKR
# Format: biochemical
# assay-setup: wild type PKR enzyme; read-out: PKR WT AC50
property: AC50

Consider the following illustrative entries.
[
  {
    "chem-smiles": "Cn1c2nc(Cc3cscn3)sc2c2cnn(Cc3c[nH]nn3)c(=O)c21",
    "system": "wild type PKR (Homo sapiens, UniProt P30613)",
    "property": "AC50",
    "test-result": "< 300 nM"
  },
  {
    "chem-smiles": "Cn1c2nc(Cc3ccccn3)sc2c2cnn(Cc3nccs3)c(=O)c21",
    "system": "wild type PKR (Homo sapiens, UniProt P30613)",
    "property": "AC50",
    "test-result": "< 300 nM"
  },
  {
    "chem-smiles": "Cn1ccc(Cn2ncc3c4sc(Cc5cc[nH]n5)nc4n(C)c3c2=O)n1",
    "system": "wild type PKR (Homo sapiens, UniProt P30613)",
    "property": "AC50",
    "test-result": "< 300 nM"
  },
  {
    "chem-smiles": "Cn1cc(F)c(Cn2ncc3c4sc(Cc5cc[nH]n5)nc4n(C)c3c2=O)n1",
    "system": "wild type PKR (Homo sapiens, UniProt P30613)",
    "property": "AC50",
    "test-result": "< 300 nM"
  },
  {
    "chem-smiles": "Cn1c2nc(Cc3cscn3)sc2c2cnn(Cc3cccc(N)n3)c(=O)c21",
    "system": "wild type PKR (Homo sapiens, UniProt P30613)",
    "property": "AC50",
    "test-result": "< 300 nM"
  }
]

**Q:** # query: AC50 of entry Cn1c2nc(Cc3cc[nH]n3)sc2c2cnn(Cc3cnsc3)c(=O)c21
**A:** < 300 nM

**Q:** # query: AC50 of entry Cn1c2nc(Cc3cc[nH]n3)sc2c2cnn(Cc3nccc(N)n3)c(=O)c21
**A:** < 300 nM

**Q:** # query: AC50 of entry CNc1ccc(F)c(Cc2nc3c(s2)c2cnn(Cc4c[nH]nn4)c(=O)c2n3C)n1
**A:** < 300 nM

**Q:** # query: AC50 of entry COc1c[nH]nc1Cn1ncc2c3sc(Cc4n[nH]cc4F)nc3n(C)c2c1=O
**A:** < 300 nM

**Q:** # query: AC50 of entry Cn1c2nc(C(=O)c3cc[nH]n3)sc2c2cnn(Cc3cccc(N)n3)c(=O)c21
**A:** 301 to 800 nM

**Q:** # query: AC50 of entry Cn1c2nc([C@H](O)c3cc[nH]n3)sc2c2cnn(Cc3cc[nH]n3)c(=O)c21
**A:** < 300 nM

**Q:** # query: AC50 of entry Cn1cc(N)c(Cn2ncc3c4sc(Cc5cc[nH]n5)nc4n(C)c3c2=O)n1
**A:** < 300 nM

**Q:** # query: AC50 of entry Cn1c2nc(Cc3ccccn3)sc2c2cnn(Cc3ccccn3)c(=O)c21
**A:** < 300 nM

**Q:** # query: AC50 of entry Cn1c2nc(Cc3cc[nH]n3)sc2c2cnn(Cc3c[nH]nn3)c(=O)c21
**A:** < 300 nM
